Here, each record is paired with measured EC50 data.
target: human wildtype CFTR (Homo sapiens); assay: Fluorescence plate reader assay of iodide influx in FRT cells co-expressing CFTR and YFP halide sensor; conditions: read-out: EC50, variation in the 3-aryl ring; plate reader assay
Respond numerically; units are nM and should not be typed.

Completed entries (count: 3):
>  <LINE_NOTATION>
O=c1c(-c2ccc(C(F)(F)F)cc2)nc2ccccc2n1Cc1ccccc1

>  <SCALE_UNIT>
nM

>  <EC50>
1000

$$$$
>  <LINE_NOTATION>
O=c1c(-c2ccccc2)nc2ccccc2n1Cc1ccccc1

>  <SCALE_UNIT>
nM

>  <EC50>
5000

$$$$
>  <LINE_NOTATION>
O=c1c(-c2ccc([N+](=O)[O-])cc2)nc2ccccc2n1Cc1ccccc1

>  <SCALE_UNIT>
nM

>  <EC50>
1000

$$$$

Read the next record carefully.
Return EC50 measured with human wildtype CFTR (Homo sapiens) given this compound: O=c1c(-c2cccc(Br)c2)nc2ccccc2n1Cc1ccccc1
330

---

target: human wildtype CFTR (Homo sapiens, UniProt P13569); assay: Fluorescence plate reader assay of iodide influx in FRT cells co-expressing CFTR and YFP halide sensor
Sequence (P13569 whole entry): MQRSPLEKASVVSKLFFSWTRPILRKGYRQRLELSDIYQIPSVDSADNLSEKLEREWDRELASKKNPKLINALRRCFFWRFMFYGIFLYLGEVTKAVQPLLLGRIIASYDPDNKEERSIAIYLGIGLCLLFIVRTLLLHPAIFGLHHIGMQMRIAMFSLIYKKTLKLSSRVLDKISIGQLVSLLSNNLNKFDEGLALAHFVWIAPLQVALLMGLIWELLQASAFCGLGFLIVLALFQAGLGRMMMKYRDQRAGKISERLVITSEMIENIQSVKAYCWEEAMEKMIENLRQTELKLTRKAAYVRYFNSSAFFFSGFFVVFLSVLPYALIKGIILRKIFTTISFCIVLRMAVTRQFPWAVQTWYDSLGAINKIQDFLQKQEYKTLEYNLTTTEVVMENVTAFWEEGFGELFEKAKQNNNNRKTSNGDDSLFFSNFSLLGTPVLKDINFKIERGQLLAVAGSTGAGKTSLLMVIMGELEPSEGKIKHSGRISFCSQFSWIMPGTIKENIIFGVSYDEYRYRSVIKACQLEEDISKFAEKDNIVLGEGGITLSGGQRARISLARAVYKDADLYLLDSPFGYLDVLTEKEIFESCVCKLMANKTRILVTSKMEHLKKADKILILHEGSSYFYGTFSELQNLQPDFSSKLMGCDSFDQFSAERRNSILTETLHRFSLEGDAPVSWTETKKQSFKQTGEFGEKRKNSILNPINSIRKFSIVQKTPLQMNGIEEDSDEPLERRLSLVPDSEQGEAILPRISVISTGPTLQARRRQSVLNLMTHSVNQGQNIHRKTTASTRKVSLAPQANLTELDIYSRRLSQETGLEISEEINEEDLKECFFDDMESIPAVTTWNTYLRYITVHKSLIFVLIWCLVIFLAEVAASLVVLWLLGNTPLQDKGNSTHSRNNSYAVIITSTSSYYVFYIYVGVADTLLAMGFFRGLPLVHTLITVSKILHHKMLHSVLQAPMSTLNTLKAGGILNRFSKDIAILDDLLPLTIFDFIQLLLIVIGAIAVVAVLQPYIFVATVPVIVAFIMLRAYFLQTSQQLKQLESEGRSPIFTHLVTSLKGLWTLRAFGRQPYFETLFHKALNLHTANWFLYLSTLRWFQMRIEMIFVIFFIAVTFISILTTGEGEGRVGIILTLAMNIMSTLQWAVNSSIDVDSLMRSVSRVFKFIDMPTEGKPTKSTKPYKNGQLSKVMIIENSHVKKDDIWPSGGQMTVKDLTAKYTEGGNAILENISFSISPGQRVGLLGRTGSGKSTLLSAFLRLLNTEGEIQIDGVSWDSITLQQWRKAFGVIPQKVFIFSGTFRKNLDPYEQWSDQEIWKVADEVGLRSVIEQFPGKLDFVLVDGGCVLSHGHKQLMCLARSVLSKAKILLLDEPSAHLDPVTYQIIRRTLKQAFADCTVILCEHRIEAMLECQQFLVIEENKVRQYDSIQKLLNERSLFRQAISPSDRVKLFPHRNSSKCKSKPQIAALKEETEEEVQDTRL
pEC50: −log10 of the molar value.
Here, each record is paired with measured pEC50 data.

Completed entries (count: 5):
>  <LINE_NOTATION>
Nc1ccc(F)cc1-c1nc2ccccc2n(Cc2ccccc2)c1=O

>  <pEC50>
6.10

$$$$
>  <LINE_NOTATION>
O=c1c(-c2cc(Br)ccc2NCc2ccccc2)nc2ccccc2n1Cc1ccccc1

>  <pEC50>
~4.82

$$$$
>  <LINE_NOTATION>
Nc1ccc([N+](=O)[O-])cc1-c1nc2cc(Cl)ccc2n(Cc2ccccc2)c1=O

>  <pEC50>
6.96

$$$$
>  <LINE_NOTATION>
O=c1c(-c2cccc([N+](=O)[O-])c2)nc2cc(F)c(F)cc2n1Cc1ccccc1

>  <pEC50>
< 5.00

$$$$
>  <LINE_NOTATION>
O=c1c(-c2cccc([N+](=O)[O-])c2)nc2cc(Cl)c(Cl)cc2n1Cc1ccccc1

>  <pEC50>
< 5.00

$$$$

Return pEC50 measured with human wildtype CFTR (Homo sapiens, UniProt P13569) given this compound: Cc1cccc2nc(-c3cccc([N+](=O)[O-])c3)c(=O)n(Cc3ccccc3)c12
< 5.00

---

Test: Pharmacokinetics in mice (plasma LC/MS)
Assay type: in vivo, mouse
Conditions: female, CD1, mouse, serum; 10 mg/kg ip; read-out: serum elimination half-life
Procedure: Blood was collected at 15, 30, 60, 150, 240 and 360 min after treatment by orbital puncture and centrifuged at 5000 rpm for 15 min to separate plasma. Plasma samples (60 μL) were mixed with 300 μL acetonitrile and centrifuged at 13000 rpm for 20 min, and 90 μL of the supernatant was used for LC/MS. The solvent system consisted of a linear gradient from 5 to 95% acetonitrile over 16 min (0.2 ml/min flow). […]
MEASURED_ATTRIBUTE: half-life (min)
Respond numerically; units are min and should not be typed.

Would you mind telling me what half-life value was observed for Nc1ccc([N+](=O)[O-])cc1-c1nc2ccccc2n(Cc2ccccc2)c1=O [CFTRact-J027] ?
16

---

target: human wildtype CFTR (Homo sapiens); test: Short-circuit current (Isc) in FRT cells expressing human wild-type CFTR; settings: EC50 for CFTR activation, FRT cells, wild-type CFTR, short-circuit current
MEASURED_ATTRIBUTE: EC50

Would you mind telling me what EC50 value was observed for Nc1ccc([N+](=O)[O-])cc1-c1nc2cc(Cl)ccc2n(Cc2ccccc2)c1=O ?
~300 nM

---

target: human wildtype CFTR (Homo sapiens, UniProt P13569); assay: Fluorescence plate reader assay of iodide influx in FRT cells co-expressing CFTR and YFP halide sensor
MEASURED_ATTRIBUTE: EC50 (nM)
Respond numerically; units are nM and should not be typed.

>  <LINE_NOTATION>
Nc1ccc([N+](=O)[O-])cc1-c1nc2cc(F)ccc2n(Cc2ccccc2)c1=O

>  <MEASURED_ATTRIBUTE>
EC50

>  <SCALE_UNIT>
nM

>  <QUANTITATIVE_RESULT>
530

$$$$

Read the next record carefully.
Would you mind telling me what EC50 value was observed for Nc1ccc([N+](=O)[O-])cc1-c1nc2ccccc2n(Cc2cccc(Br)c2)c1=O ?
1200

---

Here, each record is paired with measured EC50 data.
biological target: human wildtype CFTR (Homo sapiens); assay: Fluorescence plate reader assay of iodide influx in FRT cells co-expressing CFTR and YFP halide sensor

Completed entries (count: 7):
>  <LINE_NOTATION>
N#Cc1ccccc1Cn1c(=O)c(-c2cc(I)ccc2N)nc2ccccc21

>  <MEASURED_ATTRIBUTE>
EC50

>  <RESULT>
> 25 µM

$$$$
>  <LINE_NOTATION>
O=C(O)c1ccc([N+](=O)[O-])c(-c2nc3ccccc3n(Cc3ccccc3)c2=O)c1

>  <MEASURED_ATTRIBUTE>
EC50

>  <RESULT>
> 10 µM

$$$$
>  <LINE_NOTATION>
Nc1ccc(I)cc1-c1nc2ccccc2n(Cc2ccccc2[N+](=O)[O-])c1=O

>  <MEASURED_ATTRIBUTE>
EC50

>  <RESULT>
> 25 µM

$$$$
>  <LINE_NOTATION>
Nc1ccc(C(=O)O)cc1-c1nc2ccccc2n(Cc2ccccc2)c1=O

>  <MEASURED_ATTRIBUTE>
EC50

>  <RESULT>
> 10 µM

$$$$
>  <LINE_NOTATION>
CC(=O)Nc1ccccc1-c1nc2ccccc2n(Cc2cccc(Br)c2)c1=O

>  <MEASURED_ATTRIBUTE>
EC50

>  <RESULT>
~19 µM

$$$$
>  <LINE_NOTATION>
Cc1ccc2c(c1)nc(-c1c(N)cccc1Br)c(=O)n2Cc1ccccc1

>  <MEASURED_ATTRIBUTE>
EC50

>  <RESULT>
0.65 µM

$$$$
>  <LINE_NOTATION>
O=c1[nH]c2ccccc2nc1-c1cccc([N+](=O)[O-])c1

>  <MEASURED_ATTRIBUTE>
EC50

>  <RESULT>
> 10 µM

$$$$

Would you mind telling me what EC50 value was observed for CC(=O)Nc1ccc([N+](=O)[O-])cc1-c1nc2ccccc2n(Cc2ccccc2)c1=O ?
1.5 µM

---

biological target: human wildtype CFTR (Homo sapiens); experiment: Fluorescence plate reader assay of iodide influx in FRT cells co-expressing CFTR and YFP halide sensor
pEC50: −log10 of the molar value.
Everything with pEC50 lower than 6 is not satisfied; everything else, including exactly 6, is satisfied.

Would you please look over these solved cases?
>  <COMPOUND>
Nc1ccc([N+](=O)[O-])cc1-c1nc2cccc3c2n(c1=O)C(c1ccccc1)CO3 (centres unmarked)

>  <ASSIGNED_CATEGORY>
not satisfied

$$$$
>  <COMPOUND>
Nc1ccc([N+](=O)[O-])cc1-c1nc2cc(Br)ccc2n(Cc2ccccc2)c1=O

>  <ASSIGNED_CATEGORY>
satisfied

$$$$
>  <COMPOUND>
Cn1c(=O)c(-c2cccc([N+](=O)[O-])c2)nc2ccccc21

>  <ASSIGNED_CATEGORY>
not satisfied

$$$$

Does the compound Cc1ccc2c(c1)nc(-c1cc(I)ccc1N)c(=O)n2Cc1ccccc1 have recorded pEC50 that is 6 or more?
satisfied

Does the compound Nc1ccc([N+](=O)[O-])cc1-c1nc2ccccc2n(Cc2ccccc2Br)c1=O have recorded pEC50 that is 6 or more?
not satisfied

---

assay: In vitro metabolic stability in human liver microsomes; format: in vitro ADME; details: human, liver microsomes, 5 μM, NADPH; read-out: elimination half-life in human hepatic microsomes
MEASURED_ATTRIBUTE: half-life at 5 μM

Would you mind telling me what half-life at 5 μM value was observed for Nc1ccc([N+](=O)[O-])cc1-c1nc2ccccc2n(Cc2ccccc2)c1=O [CFTRact-J027] ?
~35 min

---

target: human wildtype CFTR (Homo sapiens); test: Fluorescence plate reader assay of iodide influx in FRT cells co-expressing CFTR and YFP halide sensor; conditions: read-out: EC50, variation in the N1-substituent; plate reader assay
Label t when EC50 is strictly below 60 nM; otherwise label f.

Would you please look over these solved cases?
>  <LINE_NOTATION>
CCCn1c(=O)c(-c2cccc([N+](=O)[O-])c2)nc2ccccc21

>  <ASSIGNED_CATEGORY>
f

$$$$
>  <LINE_NOTATION>
O=c1c(-c2cccc([N+](=O)[O-])c2)nc2ccccc2n1Cc1ccco1

>  <ASSIGNED_CATEGORY>
t

$$$$
>  <LINE_NOTATION>
O=c1c(-c2cccc([N+](=O)[O-])c2)nc2ccccc2n1Cc1ccc2ccccc2c1

>  <ASSIGNED_CATEGORY>
f

$$$$
>  <LINE_NOTATION>
CCn1c(=O)c(-c2cccc([N+](=O)[O-])c2)nc2ccccc21

>  <ASSIGNED_CATEGORY>
f

$$$$
>  <LINE_NOTATION>
O=c1c(-c2cccc([N+](=O)[O-])c2)nc2ccccc2n1Cc1ccccn1

>  <ASSIGNED_CATEGORY>
t

$$$$

Switching to the query record.
For this molecule, is EC50 lower than 60 nM? C=CCn1c(=O)c(-c2cccc([N+](=O)[O-])c2)nc2ccccc21
t
